target: T. brucei GAPDH (Trypanosoma brucei brucei); assay: Inhibition of T. brucei GAPDH; type: biochemical; conditions: fixed concentration of 10 μM; data not shown; read-out: decrease of GAPDH activity
Sequence (P22512 whole entry): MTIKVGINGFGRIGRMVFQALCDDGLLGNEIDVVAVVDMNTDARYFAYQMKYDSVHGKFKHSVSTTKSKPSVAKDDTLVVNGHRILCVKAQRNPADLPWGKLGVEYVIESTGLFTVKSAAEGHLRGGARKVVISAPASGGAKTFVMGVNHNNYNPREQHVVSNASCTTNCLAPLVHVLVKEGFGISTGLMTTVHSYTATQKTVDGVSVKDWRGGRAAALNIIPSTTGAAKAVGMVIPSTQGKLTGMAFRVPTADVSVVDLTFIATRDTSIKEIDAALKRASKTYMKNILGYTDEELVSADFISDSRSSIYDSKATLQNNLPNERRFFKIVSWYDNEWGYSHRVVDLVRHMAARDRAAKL
Property: inhibition at 10 µM; scope: individual compounds

{"columns": ["Mol", "Tested System", "inhibition at 10 µM"],
 "data": [
  ["O=C1C=C(Oc2cccc(CCCCCCCCO)c2)C(=O)c2ccccc21", "T. brucei GAPDH (Trypanosoma brucei brucei)", "< 15%"],
  ["O=C1C(Oc2cccc(CCCCCCCCO)c2)=CC(=O)c2c(O)cccc21", "T. brucei GAPDH (Trypanosoma brucei brucei)", "< 15%"],
  ["CCCCCCCCCCCCCCCc1cccc(OC2=CC(=O)c3cccc(OC)c3C2=O)c1", "T. brucei GAPDH (Trypanosoma brucei brucei)", "< 15%"],
  ["CCCCCCCCCCCCCCCc1cccc(OC2=CC(=O)c3cccc(O)c3C2=O)c1C(=O)OC", "T. brucei GAPDH (Trypanosoma brucei brucei)", "< 15%"]
]}
